- Test system: MKN28 (Gastric Carcinoma)
- experimental.details: combination Emax (second highest fraction inhibited in the dose matrix, 72 h); higher = more inhibition; extreme values may be limits of the assay
property.label: combination Emax
Numbers only.

For each entry beneath this line, provide reported combination Emax.
1. Cc1c2c(nn1C)CSCc1cc(n(C)n1)CSc1cc(c3ccccc3c1)OCCCc1c(C(=O)O)n(C)c3c-2c(Cl)ccc13 [AZD5991] + Nc1ccn([C@@H]2O[C@H](CO)[C@@H](O)C2(F)F)c(=O)n1 [Gemcitabine] (first compound max 1 µM, 7x7, partner max 0.3 µM)
2. CCc1c2c(nc3ccc(O)cc13)-c1cc3c(c(=O)n1C2)COC(=O)[C@]3(O)CC [SN-38] + CN(C)CCCOc1ccc(-c2ccc3ncc4c(c3c2)n(C2CCOCC2)c(=O)n4C)cn1 [AZD0156] (first compound max 0.3 µM, 7x7, partner max 1 µM)

*A*
1. 0.161
2. 0.451

For each entry beneath this line, provide reported combination Emax.
1. NC1(C(=O)N[C@@H](CCO)c2ccc(Cl)cc2)CCN(c2ncnc3[nH]ccc23)CC1 [Capivasertib] + CC(C)n1c(=O)n(C)c2cnc3cc(F)c(-c4ccc(OCCCN5CCCCC5)nc4)cc3c21 [AZD1390] (first compound max 10 µM, 7x7, partner max 0.3 µM)
2. Cc1c2c(nn1C)CSCc1cc(n(C)n1)CSc1cc(c3ccccc3c1)OCCCc1c(C(=O)O)n(C)c3c-2c(Cl)ccc13 [AZD5991] + C=CCn1c(=O)c2cnc(Nc3ccc(N4CCN(C)CC4)cc3)nc2n1-c1cccc(C(C)(C)O)n1 [AZD1775] (first compound max 1 µM, partner max 1 µM)
3. CC1(C)CCC(CN2CCN(c3ccc(C(=O)NS(=O)(=O)c4ccc(NCC5CCOCC5)c([N+](=O)[O-])c4)c(Oc4cnc5[nH]ccc5c4)c3)CC2)=C(c2ccc(Cl)cc2)C1 [Venetoclax] + C[C@@H]1COCCN1C2=NC(=NC(=C2)C3(CC3)[S@](=N)(=O)C)C4=C5C=CNC5=NC=C4 [AZD6738] (first compound max 1 µM, 7x7, partner max 10 µM)
4. Cc1cc2ncnn2cc1Nc1ncc2c(n1)n(C1CCOCC1)c(=O)n2C [AZD7648] + CN(C)CCCOc1ccc(-c2ccc3ncc4c(c3c2)n(C2CCOCC2)c(=O)n4C)cn1 [AZD0156] (first compound max 10 µM, 7x7, partner max 1 µM)

*A*
0.145
0.572
0.488
0.287

Item Cc1c2c(nn1C)CSCc1cc(n(C)n1)CSc1cc(c3ccccc3c1)OCCCc1c(C(=O)O)n(C)c3c-2c(Cl)ccc13 [AZD5991] + CS(=O)(=O)CCNCc1ccc(-c2ccc3ncnc(Nc4ccc(OCc5cccc(F)c5)c(Cl)c4)c3c2)o1 [Lapatinib] (first compound max 1 µM, 7x7, partner max 10 µM) was tested on MKN28 (Gastric Carcinoma); the reported combination Emax is 0.41

* * *

- Test system: TOV-112D (Ovarian Carcinoma)
- experimental.details: combination Emax (second highest fraction inhibited in the dose matrix, 72 h); higher = more inhibition; extreme values may be limits of the assay
Please note: 1 applies when combination Emax is 0.7 or greater, and 0 applies otherwise.

Answered cases to consult:
- COc1nnc2ccc(N3CCC(c4ccc(OCCN5CCN(C)C(=O)[C@H]5C)cc4)CC3)nn12 [AZD5153] + C[C@@H]1COCCN1C2=NC(=NC(=C2)C3(CC3)[S@](=N)(=O)C)C4=C5C=CNC5=NC=C4 [AZD6738] (first compound max 1 µM, 7x7, partner max 10 µM): 1
- NC1(C(=O)N[C@@H](CCO)c2ccc(Cl)cc2)CCN(c2ncnc3[nH]ccc23)CC1 [Capivasertib] + CCN(CCO)CCCOc1ccc2c(Nc3cc(CC(=O)Nc4cccc(F)c4)[nH]n3)ncnc2c1 [AZD2811] (first compound max 10 µM, 7x7, partner max 1 µM): 0
- COc1cccc2c1C(=O)c1c(O)c3c(c(O)c1C2=O)C[C@@](O)(C(=O)CO)C[C@@H]3O[C@H]1C[C@H](N)[C@H](O)[C@H](C)O1 [Doxorubicin] + Cc1cc2ncnn2cc1Nc1ncc2c(n1)n(C1CCOCC1)c(=O)n2C [AZD7648] (first compound max 1 µM, 7x7, partner max 10 µM): 1

*Q* # check: combination Emax of Cc1c2c(nn1C)CSCc1cc(n(C)n1)CSc1cc(c3ccccc3c1)OCCCc1c(C(=O)O)n(C)c3c-2c(Cl)ccc13 [AZD5991] + C[C@@H](Nc1cc(F)cc(F)c1)c1cc(C(=O)N(C)C)cc2c(=O)cc(N3CCOCC3)oc12 [AZD8186] (first compound max 1 µM, 7x7, partner max 3 µM) is greater than or equal to 0.7
*A* 0

*Q* # check: combination Emax of COc1cccc(OCCCN)c1-c1cc(Nc2cnc(C#N)cn2)n[nH]1 [Prexasertib] + CCc1c2c(nc3ccc(O)cc13)-c1cc3c(c(=O)n1C2)COC(=O)[C@]3(O)CC [SN-38] (first compound max 1 µM, 7x7, partner max 0.3 µM) is greater than or equal to 0.7
*A* 1

*Q* # check: combination Emax of Cn1cnc2c(F)c(Nc3ccc(Br)cc3Cl)c(C(=O)NOCCO)cc21 [Selumetinib] + C=CCn1c(=O)c2cnc(Nc3ccc(N4CCN(C)CC4)cc3)nc2n1-c1cccc(C(C)(C)O)n1 [AZD1775] (first compound max 10 µM, partner max 1 µM) is greater than or equal to 0.7
*A* 0

*Q* # check: combination Emax of Cc1c2c(nn1C)CSCc1cc(n(C)n1)CSc1cc(c3ccccc3c1)OCCCc1c(C(=O)O)n(C)c3c-2c(Cl)ccc13 [AZD5991] + Cc1cc2ncnn2cc1Nc1ncc2c(n1)n(C1CCOCC1)c(=O)n2C [AZD7648] (first compound max 1 µM, 7x7, partner max 10 µM) is greater than or equal to 0.7
*A* 0

*Q* # check: combination Emax of Cc1c2c(nn1C)CSCc1cc(n(C)n1)CSc1cc(c3ccccc3c1)OCCCc1c(C(=O)O)n(C)c3c-2c(Cl)ccc13 [AZD5991] + Cn1cnc2c(F)c(Nc3ccc(Br)cc3Cl)c(C(=O)NOCCO)cc21 [Selumetinib] (first compound max 1 µM, 7x7, partner max 3 µM) is greater than or equal to 0.7
*A* 0

*Q* # check: combination Emax of COc1cc2ncnc(Nc3ccc(F)c(Cl)c3)c2cc1OCCCN1CCOCC1 [Gefitinib] + CC(C)n1c(=O)n(C)c2cnc3cc(F)c(-c4ccc(OCCCN5CCCCC5)nc4)cc3c21 [AZD1390] (first compound max 10 µM, 7x7, partner max 0.3 µM) is greater than or equal to 0.7
*A* 0

*Q* # check: combination Emax of CCN(CCO)CCCOc1ccc2c(Nc3cc(CC(=O)Nc4cccc(F)c4)[nH]n3)ncnc2c1 [AZD2811] + O=C(c1cc(Cc2n[nH]c(=O)c3ccccc23)ccc1F)N1CCN(C(=O)C2CC2)CC1 [Olaparib] (first compound max 1 µM, 7x7, partner max 10 µM) is greater than or equal to 0.7
*A* 0

*Q* # check: combination Emax of Cc1c2c(nn1C)CSCc1cc(n(C)n1)CSc1cc(c3ccccc3c1)OCCCc1c(C(=O)O)n(C)c3c-2c(Cl)ccc13 [AZD5991] + CC1(C)CCC(CN2CCN(c3ccc(C(=O)NS(=O)(=O)c4ccc(NCC5CCOCC5)c([N+](=O)[O-])c4)c(Oc4cnc5[nH]ccc5c4)c3)CC2)=C(c2ccc(Cl)cc2)C1 [Venetoclax] (first compound max 1 µM, 7x7, partner max 1 µM) is greater than or equal to 0.7
*A* 1

* * *

- Test system: KYSE-180 (Esophageal Squamous Cell Carcinoma);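 also: after 72 h of two-drug dosing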
- experimental.details: Bliss excess, mean over the matrix (fraction); higher = more synergy
Give Bliss excess for every item shown.
Give bare numbers.

- CN(CCO)CC[C@H](CSc1ccccc1)Nc1ccc(S(=O)(=O)NC(=O)c2ccc(N3CCC([C@@H](O)c4ccccc4-c4ccc(Cl)cc4)CC3)cc2)cc1S(=O)(=O)C(F)(F)F [AZD4320] + CN(C)CCCOc1ccc(-c2ccc3ncc4c(c3c2)n(C2CCOCC2)c(=O)n4C)cn1 [AZD0156] (first compound max 1 µM, 7x7, partner max 1 µM): -0.0037
- COc1nnc2ccc(N3CCC(c4ccc(OCCN5CCN(C)C(=O)[C@H]5C)cc4)CC3)nn12 [AZD5153] + Cn1cnc2c(F)c(Nc3ccc(Br)cc3Cl)c(C(=O)NOCCO)cc21 [Selumetinib] (first compound max 1 µM, 7x7, partner max 10 µM): 0.046
- CC1(C)CCC(CN2CCN(c3ccc(C(=O)NS(=O)(=O)c4ccc(NCC5CCOCC5)c([N+](=O)[O-])c4)c(Oc4cnc5[nH]ccc5c4)c3)CC2)=C(c2ccc(Cl)cc2)C1 [Venetoclax] + C[C@@H](Nc1cc(F)cc(F)c1)c1cc(C(=O)N(C)C)cc2c(=O)cc(N3CCOCC3)oc12 [AZD8186] (first compound max 1 µM, 7x7, partner max 3 µM): -0.0031
- Cc1c2c(nn1C)CSCc1cc(n(C)n1)CSc1cc(c3ccccc3c1)OCCCc1c(C(=O)O)n(C)c3c-2c(Cl)ccc13 [AZD5991] + CC1(C)CCC(CN2CCN(c3ccc(C(=O)NS(=O)(=O)c4ccc(NCC5CCOCC5)c([N+](=O)[O-])c4)c(Oc4cnc5[nH]ccc5c4)c3)CC2)=C(c2ccc(Cl)cc2)C1 [Venetoclax] (first compound max 1 µM, 7x7, partner max 1 µM): 0.0103

Item CC1(C)CCC(CN2CCN(c3ccc(C(=O)NS(=O)(=O)c4ccc(NCC5CCOCC5)c([N+](=O)[O-])c4)c(Oc4cnc5[nH]ccc5c4)c3)CC2)=C(c2ccc(Cl)cc2)C1 [Venetoclax] + C=CCn1c(=O)c2cnc(Nc3ccc(N4CCN(C)CC4)cc3)nc2n1-c1cccc(C(C)(C)O)n1 [AZD1775] (first compound max 1 µM, partner max 1 µM) was tested on KYSE-180 (Esophageal Squamous Cell Carcinoma); the reported Bliss excess is 0.0264
